target: HLA-A*02:01 (Homo sapiens, UniProt P04439, D140Y/D185E/D98H/E176V/E277Q/G131W/G231S/I119V/I121R/I166T/I218V/L300P/L318F/N151K/N90K/P208A/P217A/Q86G/Q94H/R138H/R169H/T345S)
assay-name: MHC binding assay (UV-ligand exchange, beta2m ELISA)
condition-set: binding to HLA-A*02:01, UV-ligand exchange
reported-metric: Peptide exchange (MHC class I binding score, peptide exchange yield)

284 (KLQEQIHRV; listed as Homo sapiens) [compound 284]	“+++” (≥50 = +++)
88 (GLFDNRSGLPEA; listed as Homo sapiens) [compound 88]	“+++” (≥50 = +++)
283 (ALMPVTPQA; listed as Homo sapiens) [compound 283]	“+++” (≥50 = +++)
57 (LQIGDFVSV; listed as Homo sapiens) [compound 57]	“++++” (≥75% = ++++)

stdin: Tell me measured Peptide exchange (MHC class I binding score, peptide exchange yield) for 2 (LLSEETPSA; listed as Homo sapiens) [compound 2] please.
stdout: “+++” (≥50 = +++)

stdin: Tell me measured Peptide exchange (MHC class I binding score, peptide exchange yield) for 93 (KLLGSLQLL; listed as Homo sapiens) [compound 93] please.
stdout: “++++” (≥75% = ++++)

stdin: Tell me measured Peptide exchange (MHC class I binding score, peptide exchange yield) for 30 (ILSTLDVEL; listed as Homo sapiens) [compound 30] please.
stdout: “+++” (≥50 = +++)

stdin: Tell me measured Peptide exchange (MHC class I binding score, peptide exchange yield) for 141 (FLGELTLQL; listed as Homo sapiens) [compound 141] please.
stdout: “+++” (≥50 = +++)

stdin: Tell me measured Peptide exchange (MHC class I binding score, peptide exchange yield) for 154 (KLMNIQQQL; listed as Homo sapiens) [compound 154] please.
stdout: “+++” (≥50 = +++)

###

target: HLA-A*02:01 (Homo sapiens, UniProt P04439, D140Y/D185E/D98H/E176V/E277Q/G131W/G231S/I119V/I121R/I166T/I218V/L300P/L318F/N151K/N90K/P208A/P217A/Q86G/Q94H/R138H/R169H/T345S)
assay-name: MHC binding assay (UV-ligand exchange, beta2m ELISA)
condition-set: binding to HLA-A*02:01, UV-ligand exchange
reported-metric: Peptide exchange (MHC class I binding score, peptide exchange yield)

# annotated cases, reported Peptide exchange (MHC class I binding score, peptide exchange yield) shown
282 (YLLEQGAQV; listed as Homo sapiens) [compound 282]	“++++” (≥75% = ++++)
102 (SLFAAISGMIL; listed as Homo sapiens) [compound 102]	“+++” (≥50 = +++)
96 (LLLNENESLFL; listed as Homo sapiens) [compound 96]	“+++” (≥50 = +++)
267 (SLLETGSDLLL; listed as Homo sapiens) [compound 267]	“+++” (≥50 = +++)
274 (KLLNLISKL; listed as Homo sapiens) [compound 274]	“++++” (≥75% = ++++)
155 (KLMTSLVKV; listed as Homo sapiens) [compound 155]	“+++” (≥50 = +++)
301 (LQFDGIHVV; listed as Homo sapiens) [compound 301]	“+++” (≥50 = +++)
4 (TLLGFFLAKV; listed as Homo sapiens) [compound 4]	“++” (≥20% = ++)
51 (SLLGNSPVL; listed as Homo sapiens) [compound 51]	“++++” (≥75% = ++++)
116 (SLLDNLLTI; listed as Homo sapiens) [compound 116]	“+++” (≥50 = +++)

stdin: Tell me measured Peptide exchange (MHC class I binding score, peptide exchange yield) for 286 (HLTEDTPKV; listed as Homo sapiens) [compound 286] please.
stdout: “+++” (≥50 = +++)

stdin: Tell me measured Peptide exchange (MHC class I binding score, peptide exchange yield) for 215 (QLFEEEIEL; listed as Homo sapiens) [compound 215] please.
stdout: “++” (≥20% = ++)

stdin: Tell me measured Peptide exchange (MHC class I binding score, peptide exchange yield) for 90 (HLDEVFLEL; listed as Homo sapiens) [compound 90] please.
stdout: “+++” (≥50 = +++)

stdin: Tell me measured Peptide exchange (MHC class I binding score, peptide exchange yield) for 247 (KVLEMETTV; listed as Homo sapiens) [compound 247] please.
stdout: “+++” (≥50 = +++)

stdin: Tell me measured Peptide exchange (MHC class I binding score, peptide exchange yield) for 307 (FLLPVAVKL; listed as Homo sapiens) [compound 307] please.
stdout: “+++” (≥50 = +++)

stdin: Tell me measured Peptide exchange (MHC class I binding score, peptide exchange yield) for 123 (ALLSAFVQL; listed as Homo sapiens) [compound 123] please.
stdout: “+++” (≥50 = +++)

Each recorded value in this set is attributed to patent US10702592B2.
